procedureText: in vivo
assaySetup: BALB/c nude, mouse, A431-CCK2R tumour / stomach, total radioactivity
readoutKind: tissue to tissue ratio at 4 h

Lookup result for CCCC[C@@H](C(=O)N[C@@H](CC(=O)O)C(=O)N[C@@H](Cc1cccc2ccccc12)C(N)=O)N(C)C(=O)[C@H](Cc1c[nH]c2ccccc12)NC(=O)CNC(=O)[C@H](Cc1ccc(O)cc1)NC(=O)[C@H](C)NC(=O)[C@@H](CCC(=O)O)NC(=O)CN1CCN(CC(=O)O)CCN(CC(=O)O)CCN(CC(=O)O)CC1 [^177Lu-DOTA-MGS5, metal not drawn] ; measured tissue to tissue ratio at 4 h: > 3

---

procedureText: in vivo
assaySetup: BALB/c nude, mouse, A431-CCK2R tumour, total radioactivity, tumour uptake, 4 h p.i.
readoutKind: tissue uptake at 4 h (%ID/g)
Response body: numeric value in %ID/g, unit text excluded.

Query CCCC[C@@H](C(=O)N[C@@H](CC(=O)O)C(=O)N[C@@H](Cc1cccc2ccccc12)C(N)=O)N(C)C(=O)[C@H](Cc1c[nH]c2ccccc12)NC(=O)CNC(=O)[C@H](Cc1ccc(O)cc1)NC(=O)[C@H](C)NC(=O)[C@@H](CCC(=O)O)NC(=O)CN1CCN(CC(=O)O)CCN(CC(=O)O)CCN(CC(=O)O)CC1 [^111In-DOTA-MGS5, metal not drawn] yields tissue uptake at 4 h of 23.5

---

assaySetup: human, serum
*1 amine or outer side, *2 acyl side, *3 side chain or, on linkers, in order; H or OH if unused. Where a SMILES comes first, the peptide text is derived from it. Bridges are numbered along the chain shown (N, C = ends). [ ]: non-standard residue; d: D form. X1 = O=C([C@@H]1CCN=C2C(N[*:1])=Cc3cc(O)c(O)cc3N21)[*:2]; X2 = O=CN(O)CCC[C@H](N[*:1])C(=O)[*:2]; Suc = O=C(CCC(=O)[*:2])[*:1]
readoutKind: fraction unbound

Data point: C[C@@H](O)[C@@H]1NC(=O)[C@H](CCCN(O)C=O)NC(=O)[C@@H](NC(=O)[C@H](CCCN(O)C=O)NC(=O)[C@@H](CO)NC(=O)[C@H](CCCNC(=N)N)NC(=O)[C@@H](CO)NC(=O)[C@@H]2CCN=C3C(NC(=O)CCC(=O)O)=Cc4cc(O)c(O)cc4N32)CCCCNC(=O)[C@H]([C@@H](C)O)NC1=O [^68Ga-pyoverdine, metal not drawn] (Suc-[X1][dS]R[dS][X2]K[X2]TT; lactam 6-C) ; fraction unbound = > 0.97

From: paper PMC5954004
